assay: NCI Yeast Anticancer Drug Screen. Data for the mlh1 rad18 strain (AID 175); conditions: S. cerevisiae mlh1 rad18 strain growth inhibition; at 50.0 µM
Compounds without any hit were thinned out: in the full panel of roughly 79,000, 15% have a hit. Activity calls are given as the source filed them. Rule as the data show it: active = growth inhibition above about 70%; inactive = the rest.
Outcome (select one): 1.0 (active), 0.0 (inactive)

q: Which outcome was assigned to "O=C(Nc1nc(C23CC4CC(CC(C4)C2)C3)cs1)c1c(O)c2ccccc2[nH]c1=O" in this test?
a: 0.0

q: Test call, this molecule: "CC(C)(CO)[C@@H](O)C(=O)NCCC(=O)O"
a: 0.0

q: Any idea what this test logged for "CCSc1[nH]c2nc[nH]c(=O)c2c1C#N" ?
a: 0.0

q: Just curious, what result did C[N+]([O-])(Cc1ccccc1)c1ccccc1 (stereo not drawn) get here?
a: 0.0

q: Which result was noted for this molecule in the test: N#CC(C(=O)O)C(c1c(Cl)cccc1Cl)C(C#N)C(=O)O (stereo not drawn)
a: 0.0

q: Dear colleague, could you share the recorded outcome for "C/C(C/C(C)=N/O)=N/O" when you have a moment?
a: 0.0

q: In this assay, the call recorded for "CCCCCCOc1ccc(OCCCC[N+]2(CC)CCCCC2)cc1" was what?
a: 1.0

q: What did this assay record as the result for "C=CCNC(=S)NCc1cccc2ccccc12" ?
a: 0.0

q: Test call, this molecule: "CCN=C1SCCCS1"
a: 0.0

q: Per the records of this test, what outcome belongs to CCC1CCC2c3c([nH]c4ccccc34)C3C(=O)N(c4ccc(OC)cc4)C(=O)C3C2C1 (stereo not drawn) ?
a: 0.0

q: Please share the test call associated with CCOC(=O)C(F)C(C)=O (stereo not drawn) .
a: 1.0

q: Please share the test call associated with CC(O)CN1c2ccccc2Sc2ccc(Cl)cc21 (stereo not drawn) .
a: 0.0

q: Please share the test call associated with COc1ccc(C2(C=O)CN(C)CN2)cc1 (stereo not drawn) .
a: 0.0

###

assay: NCI Yeast Anticancer Drug Screen. Data for the mlh1 rad18 strain (AID 175); conditions: S. cerevisiae mlh1 rad18 strain growth inhibition; at 50.0 µM
About 79,000 compounds went through this panel and 15% of them were active in at least one assay; those are over-represented in the sample as a whole. Activity calls are given as the source filed them. Cut-off read from the data, not from the text of the source: active = growth inhibition above about 70%; inactive = the rest.
Pick one and only one: y (active), n (inactive)

q: GET /call?item= "CCOC(=O)c1cn(C)c2c1C(O)=C(C(=O)OC)CC(=O)N2" returns the recorded outcome of this test.
a: n

q: # lookup: test call for CC(C)C(Nc1ncnc2nc[nH]c12)C(=O)O (configuration not stated)
a: n

q: What did this assay record as the result for Cc1ccc(NC(=O)C(=O)C(C2C(C)CC(=O)C2CC(=O)O)[N+](=O)[O-])cc1 (configuration not stated) ?
a: n

q: # outcome recorded in this test, key = "COc1ccccc1NC(=S)N/N=C/c1ccccn1"
a: n

q: // outcome(item) with item = COC(=O)C1(CC(=O)c2cccc3ccccc23)NC(=S)NC(=O)C1C#N (configuration not stated)
a: n

q: How was "c1cncc(-c2c3ccccc3cc3ccccc23)c1" classified in this test?
a: n

q: Hi, sorry to bother you, what did the test record for OC1(c2ccccc2)CC2C=CC1C2 (configuration not stated) ?
a: n

q: Which result was noted for this compound in the test: "CC(C)(O)c1cc(Cl)ccc1Sc1ccccc1"
a: n

q: Please indicate how the test categorized "Cc1c([N+](=O)[O-])cc(C(C)(C)C)c(OS(=O)(=O)N(C)C)c1[N+](=O)[O-]" .
a: n

q: Hello, I am checking results. What call was entered for CCC1(N=[N+]=[N-])C(=O)c2ccccc2N(c2ccccc2)C1=O (configuration not stated) ?
a: n

q: Hey, what did the test say about "COc1ccc(Nc2nc3ccccc3nc2C(=O)O)cc1OC" ?
a: n

q: Name the outcome recorded for "CCOc1cc(/C=N\NC(=S)N/N=C/c2ccc(O)c(OCC)c2)ccc1O" in the assay.
a: n

q: # fetch the recorded call for "CCCCNc1nc(SC)nc2nc[nH]c12" here
a: n

q: For this compound, state the assay outcome: CC(NC(=O)C(=O)c1ccccc1)c1ccccc1 (configuration not stated)
a: n

q: Just curious, what result did "O=[N+]([O-])c1ccc2nc(NCCCO)c3ccccc3c2c1" get here?
a: n

q: What was the test verdict on "Cc1cnc(Sc2ncccn2)c([N+](=O)[O-])c1" ?
a: n

q: Hi team, can someone confirm the assay call for O=C(O)C1CC1(C(=O)O)C(=O)O (configuration not stated) ?
a: n

q: What outcome does the record of this test show for O=C(Nc1nc2ccc([N+](=O)[O-])cc2s1)C(=O)C(C(=O)c1ccncc1)C1OC(=O)c2ccccc21 (configuration not stated) ?
a: n

q: For this compound, state the assay outcome: "CN(C)C=S"
a: n

q: Which outcome was entered for the compound O=C(c1ccc(Br)cc1)C1SC2(C(=O)c3ccc(Br)cc3)SC(C(=O)c3ccc(Br)cc3)C(C(=O)c3ccc(Br)cc3)SC2(C(=O)c2ccc(Br)cc2)SC1C(=O)c1ccc(Br)cc1 (configuration not stated) in this test?
a: n

q: Lab log entry: "O=c1[nH]c(Nc2ccc(Cl)c(C(F)(F)F)c2)nc2nc[nH]c12" — outcome as called in the assay?
a: n

q: // outcome(item) with item = CCCCCCC1CCC(O)CC1 (configuration not stated)
a: n

q: So what was the verdict on CC1(c2ccc(Cl)cc2)NC(=O)N(CC(=O)Nc2ccccc2)C1=O (configuration not stated) in this test?
a: n

q: // outcome(item) with item = "O=C1OC2(c3ccc(O)cc3Oc3cc(O)ccc32)c2ccccc21"
a: n

q: Which outcome did this test record for the compound "O=c1oc2c(ccc3ccccc32)c(O)c1-c1cccc2ccccc12" ?
a: y

q: // outcome(item) with item = "c1ccc(-c2c3ccccc3c(-c3ccccc3)c3ccccc23)cc1"
a: n

q: Hi, do you know how "CCOC(=O)c1c(/N=C/c2ccc3c(c2)OCO3)sc2c1CCCC2" came out in this test?
a: n

q: Given OC(CNC1CC2CCC1C2)COc1cccc2ccccc12 (configuration not stated) , state the outcome it received in this test.
a: y

q: Please state the recorded outcome for this compound: O=C(NC(Cc1ccc(O)cc1)C(=O)O)SCc1ccccc1 (configuration not stated)
a: n

q: Which outcome was entered for the compound CC(=O)OCC(OC(C)=O)C(OC(C)=O)C(OC(C)=O)c1cnn(-c2ccccc2)n1 (configuration not stated) in this test?
a: n

q: Field: outcome | Entry: "NC(=O)c1ccccc1N=NNc1ccccc1"
a: n

q: What classification did S=C1NC(/C=C/c2ccccc2)Nc2ccccc21 (configuration not stated) end up with in this test?
a: y

q: Recorded call for "CN1CC(=O)N(CO)/C1=N\CO" ?
a: n

q: Name the outcome recorded for C=C(Br)CN1CCC2(c3ccccc3)C(=O)C([Se]c3ccccc3)CCC12 (configuration not stated) in the assay.
a: n

q: Field: outcome | Entry: "CCCCCCCC(=O)N(CC)CC"
a: n

q: What did the test return for COC(=O)C(C)OC(=O)OCC(C)C (configuration not stated) ?
a: n

q: Please indicate how the test categorized "O=C1c2ccccc2C(=O)N1Cc1ccccc1-c1c2nc(c(-c3ccccc3CN3C(=O)c4ccccc4C3=O)c3ccc([nH]3)c(-c3ccccc3CN3C(=O)c4ccccc4C3=O)c3nc(c(-c4ccccc4CN4C(=O)c5ccccc5C4=O)c4ccc1[nH]4)C=C3)C=C2" .
a: n

q: For this compound, state the assay outcome: "CC(=O)c1ccccc1C(=O)O"
a: n

q: Dear all, I need the recorded test outcome for "O=C(O)c1ccoc1-c1ccccc1" , thank you.
a: n

q: Each compound tested received a call. Report the one for "O=C(NNC(=O)c1ccc2ccccc2n1)c1ccc2ccccc2n1" .
a: n

q: Call for entry CC1CC(=O)Nc2ncnc(N)c21 (configuration not stated) :
a: n

q: // outcome(item) with item = Cc1c(C)c2ccc(OC(C)C(=O)O)cc2oc1=O (configuration not stated)
a: n

q: Just curious, what result did Nc1cnccc1NCC(O)c1ccccc1 (configuration not stated) get here?
a: n

q: Given "O=C(O)CSc1n[nH]c(-c2ccc(O)cc2)n1" , state the outcome it received in this test.
a: n

q: Returns: the outcome recorded for "COc1ccc(-n2c(C)nc3c(cnn3CN3CCCCC3)c2=O)cc1" in this assay.
a: n

q: Look up the recorded call for "C=C(C)CNC(=S)N(N)c1ccc(OC)cc1" in this test.
a: n

q: Tell me the assay call for "CN(/N=C/c1ccccn1)C1=NCCCN1" please.
a: n

###

assay: NCI Yeast Anticancer Drug Screen. Data for the rad50 strain (AID 155);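 also: 0% = growth of vehicle-only cultures of the same strain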; conditions: S. cerevisiae rad50 strain growth inhibition; at 50.0 µM; active compounds read high
Compounds without any hit were thinned out: in the full panel of roughly 79,000, 15% have a hit.
quantity_measured: growth inhibition (%)
API: value field is a number in %; no unit string.

growth inhibition measured on CC1(C)OCC(C(O)C2OC(C)(C)OC2/C=N\O)O1 (configuration not stated) = -3.9

In plain terms, "Oc1c(Br)cc(CN(Cc2cc(Br)c(O)c(Br)c2)C2CCCCC2)cc1Br" has a documented growth inhibition of -2.75

The reported growth inhibition of the compound "O=C1C=C(CCC2=CC(=O)c3ccccc3C2=O)C(=O)c2ccccc21" was 4.65

Recorded growth inhibition (compound "CC(=O)N1CCN(c2ccccc2Cl)CC1" ): -10

Record summary for "C=CCSC(C)=O" : reported growth inhibition = -3.4

# growth inhibition of "COn1c(-c2ccccc2)nc2c1C(=O)N(C)CN2C" = -14.2

For "CC(=O)Nc1ccc(S(=O)(=O)c2ccc(NC(C)=O)cc2)cc1" the compound record lists growth inhibition as -10.6

Quick note, growth inhibition for "O=C(O)c1c(Cl)c(Cl)c(Cl)c(Cl)c1C(=O)Nc1ccccc1F" landed at -3.8

growth inhibition in this record for COC(=O)C1=C(C)N(NC(N)=O)C2(N)N(NC(N)=O)C(C)=C(C(=O)OC)C12C#N (configuration not stated) : -23.5

Record "CCCCC/C(C)=N\O" , field growth inhibition: -19

Record summary for "Cc1cc2c(=O)cc(-c3ccccc3)oc2c(C(=O)O)c1C" : reported growth inhibition = -12.7

Record summary for O=C(Nc1ccccc1CCl)Nc1ccccc1CCl (tested in a mixture with another compound) : reported growth inhibition = 7.6

Form: compound = "Cc1cccc2nc(-c3ccccn3)n(CCc3ccccn3)c12" ; growth inhibition = -5.2

# growth inhibition of "c1ccc(CC/C(=N/N=C(\CCc2ccccc2)c2ccccc2)c2ccccc2)cc1" = 10.7

For this compound ( "CCc1nc(-c2ccccc2)nc2c1nc(-c1ccc(C)cc1)n2Nc1ccccc1" ), measured growth inhibition is 0.85

response.value for "Cc1nc([N+](=O)[O-])cn1/C=C/Cn1cc([N+](=O)[O-])nc1C" (field: growth inhibition) = -3.25

Record summary for "Cn1c(C(=O)NN)cc2cc(OCc3ccccc3)ccc21" : reported growth inhibition = 30.1

The recorded growth inhibition for "CCOC(=O)/C(I)=C/c1cc(OC)c(OC)c(OC)c1" is -2.2

Data point: "O=C(O)c1c2c(cc3c(=O)c4ccccc4[nH]c13)CCCC2" ; growth inhibition = -5.65

"Cc1ccc(Cl)cc1NS(=O)(=O)c1ccccc1" yielded growth inhibition of -4.35

Consider "O=C(CN1CCC(O)(c2ccccc2)CC1)N1CCN(/C=C/c2ccccc2)CC1" . Its measured growth inhibition is -4

The compound listed as "O=C(O)c1ccc(NC(=S)NC(=O)c2cccc([N+](=O)[O-])c2)cc1" has a reported growth inhibition of 5.55

The compound identified as "O=C(O)c1ccoc1-c1ccccc1" registered its growth inhibition at 12.7

Recorded result, "COC(CN1C=C(Sc2ccccc2)CC1)OC" , growth inhibition: 49.2

Sure, the documented growth inhibition for "OC(COc1ccccc1)COc1ccccc1" is 1.35

Please fill in: growth inhibition reported for "CSc1nnc(SCc2nn3c(=O)cc(C)nc3s2)s1" = -7.9

The recorded growth inhibition for entry CC(C)[N+](=C1O[B-](c2ccccc2)(c2ccccc2)O[B-]1(c1ccccc1)[C+]1CCCCC1)C(C)C (configuration not stated) equals -51.1

Per the record, CC(C)CC(C)Cc1ccncc1 (configuration not stated) has growth inhibition of 0.4

Recorded result, "Cc1ccc(NCC(=O)N2CC(=O)Nc3ccccc32)cc1" , growth inhibition: -28.6

Record "CCCCCCCCCCCCCCCCCC(CCCCCCCC)CCCCCCCC" , field growth inhibition: -5.15

Form field growth inhibition, entry "COc1ccccc1NC(=O)Cc1nc(=O)[nH]c(=O)[nH]1" : -13.3

Reported growth inhibition ( CCOC(=O)C1=C(O)c2ccccc2S(=O)(=O)N1C (tested in a mixture with another compound) ) = 4.05

Measured growth inhibition of "C1CSC(SCCCSC2SCCCS2)SC1" : -4.1

# compound CCOC1CS(=O)(=O)CC(OCC)O1 (configuration not stated) ; its growth inhibition = 3.35

"Cc1cc2c(cc1Cl)SSc1cc(Cl)c(C)cc1S(=O)(=O)Nc1nc(N)nn1C(O)n1nc(N)nc1NS2(=O)=O" has a reported growth inhibition of 7.65

# growth inhibition of "C#CCN(CCCC)CCCC" = -14.2

growth inhibition reading for O=C1OC2=C(CCCCC2)C(N2CCCCC2)C12SCCCS2 (configuration not stated) : -7.9

Entry under test: "CCC(C)(C)c1ccc(OCCOC(C)=O)cc1" . Its growth inhibition was 3.1

growth inhibition reading for COC(=O)C1(CC(=O)c2cccs2)NC(=S)NC(=O)C1C#N (configuration not stated) : 9.4

The measured growth inhibition associated with "O=C1NC2(CCN(CCc3ccccc3)CC2)Oc2ccccc21" reads 28.9

Record "COc1ccc(NC(=O)C/C(C)=C2/C(=O)NN(c3ccccc3)C2=O)cc1" , field growth inhibition: 33.5

// field: growth inhibition; key: O=C(NCc1cccnc1)C1COc2cc(-c3cc(=O)c4ccccc4o3)ccc2O1 (configuration not stated) ; value = -9.55

Short answer for "CCCCCCCCCCCC(=O)OCCS(=O)(=O)CCOC(=O)CCCCCCCCCCC" : growth inhibition was 30

// recorded growth inhibition for "CCN(CC)CCCNc1cccc2nc(Cl)ccc12" : 12.1

Field growth inhibition (entry "Cc1ccc(Cl)c(NC(=O)COc2ccc(Cl)cc2)c1" ) reads -1.2

# growth inhibition (compound: "COC(=O)c1ccc(S(=O)(=O)O)cc1[N+](=O)[O-]" ) is 3.05

The compound Cc1cccc(C(C)C)c1NC(=O)C(=O)C(C#N)c1ccc(CC#N)cc1 (configuration not stated) showed growth inhibition equal to -27.9

All figures here come from PubChem BioAssay (NCI).
